Target: T1, E. coli RNase P holoenzyme (C5 protein + P RNA), wild type (Escherichia coli, UniProt P0A7Y8 1-119)
T1 sequence: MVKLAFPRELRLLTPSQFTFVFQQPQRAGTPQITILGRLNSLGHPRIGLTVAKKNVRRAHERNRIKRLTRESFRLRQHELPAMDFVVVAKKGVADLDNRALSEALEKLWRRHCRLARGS
Assay: single-turnover kinetics by PAGE (K' from kobs vs [E]); 17.5 mM Mg2+, pH 6; K' approximates Kd; 50 mM MES pH 6, 100 mM NaCl, 17.5 mM MgCl2 (or CaCl2), 0.015% Triton X-100 reduced, 37 C (PAGE single turnover); stopped-flow in similar buffer
Details: protein: recombinant; label: 5' Cy3 on strand 1; 12 bp continuous helix with one U-G wobble; 5' overhang 9 nt, 3' overhang 4 nt (GCCA)
READOUT: Kd (nM)
Numbers only here, please. The scale is nM.

Request: Requested field: Kd. Item: 5'Cy3-MD1 (dsRNA, 2-aminopurine at position 8 (N-2) as printed, written A; Table 1 appears to swap the Cy3 between 5'Cy3-MD1 and 5'Ap(-2)-MD1) RNA 1: ACCCAAAAUGGUCCGGGCGGG RNA 2: CCCGUCCGGACCGCCA
Response: 189
